The following compounds are shown together with reported log10 of IC50 values.
- system tested: recombinant human NF-kappaB-inducing Kinase (NIK/MAP3K14) (Homo sapiens)
- Sequence (Q99558 whole entry): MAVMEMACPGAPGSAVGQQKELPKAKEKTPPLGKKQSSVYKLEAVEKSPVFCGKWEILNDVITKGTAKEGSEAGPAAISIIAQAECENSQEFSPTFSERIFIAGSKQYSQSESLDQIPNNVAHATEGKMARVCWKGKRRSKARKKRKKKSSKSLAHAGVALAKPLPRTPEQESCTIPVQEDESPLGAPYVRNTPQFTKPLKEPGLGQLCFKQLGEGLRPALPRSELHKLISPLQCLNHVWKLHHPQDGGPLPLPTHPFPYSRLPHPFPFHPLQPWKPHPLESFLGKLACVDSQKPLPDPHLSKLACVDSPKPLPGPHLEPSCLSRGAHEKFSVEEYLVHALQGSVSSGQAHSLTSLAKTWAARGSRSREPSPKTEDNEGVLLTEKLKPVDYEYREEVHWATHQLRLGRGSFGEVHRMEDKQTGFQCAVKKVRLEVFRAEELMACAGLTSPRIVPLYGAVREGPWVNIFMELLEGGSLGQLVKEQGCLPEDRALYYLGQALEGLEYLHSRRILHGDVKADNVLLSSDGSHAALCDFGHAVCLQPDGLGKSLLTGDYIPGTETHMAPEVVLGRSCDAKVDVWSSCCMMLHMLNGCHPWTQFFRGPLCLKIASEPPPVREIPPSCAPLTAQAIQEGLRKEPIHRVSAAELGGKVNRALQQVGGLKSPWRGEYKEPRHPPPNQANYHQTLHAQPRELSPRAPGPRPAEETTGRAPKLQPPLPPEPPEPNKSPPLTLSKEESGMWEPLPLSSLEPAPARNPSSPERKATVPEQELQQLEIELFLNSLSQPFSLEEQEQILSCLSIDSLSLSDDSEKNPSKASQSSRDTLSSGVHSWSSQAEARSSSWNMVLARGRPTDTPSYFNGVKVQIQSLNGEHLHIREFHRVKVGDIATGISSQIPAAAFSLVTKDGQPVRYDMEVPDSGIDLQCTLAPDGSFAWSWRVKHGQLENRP
- method notes: Inhibition of auto-phosphorylation of recombinant human NIK/MAP3K14 activity (AlphaScreen)
- Assay type: biochemical
- condition description: 25 microM ATP, averaged over all measurements on all batches
test readout: log10 of IC50 (log10 of the value in nM)

compound: CC(C)Oc1ncccc1Nc1nccc(-c2cc(C#N)c3c(c2)C(C)(CO)CN3)n1 (stereo not drawn)
test readout: log10 of IC50
recorded value: 0.96

compound: Cc1cc(Nc2ncc(F)c(-c3cc(C#N)c4c(c3)[C@@](C)(CO)CN4)n2)c(C)cn1
test readout: log10 of IC50
recorded value: 0.20

compound: COc1ncccc1Nc1nccc(-c2cc(C#N)c3c(c2)C(C)(CNC(C)=O)CN3)n1 (stereo not drawn)
test readout: log10 of IC50
recorded value: 1.00

compound: COC[C@@]1(C)CNc2c(C#N)cc(-c3ccnc(Nc4cc(Cl)cnc4C)n3)cc21 [Compound 122]
test readout: log10 of IC50
recorded value: 0.98

compound: Cc1ncc(Nc2nccc(-c3cc(C#N)c4c(c3)[C@@](C)(CO)CN4)n2)c(OCC2(C)COC2)n1
test readout: log10 of IC50
recorded value: 1.18

compound: COCCOc1nc(C)ncc1Nc1nccc(-c2cc(C#N)c3c(c2)[C@@](C)(CO)CN3)n1
test readout: log10 of IC50
recorded value: 1.26

compound: COc1nc(C2CCOCC2)ccc1Nc1nccc(-c2cc(C#N)c3c(c2)[C@@](C)(CO)CN3)n1
test readout: log10 of IC50
recorded value: 0.97

compound: Cn1cc(Cl)cc(Nc2nccc(-c3cc(C#N)c4c(c3)C(C)(CO)CN4)n2)c1=O (stereo not drawn) [Compound 15i]
test readout: log10 of IC50
recorded value: 0.56

compound: CC1(CO)CNc2c(C#N)cc(-c3ccnc(Nc4ccc(N5CCNCC5)cn4)n3)cc21 (stereo not drawn)
test readout: log10 of IC50
recorded value: 0.81

compound: Cc1cnc(C2CCOCC2)c(Nc2nccc(-c3cc(C#N)c4c(c3)[C@@](C)(CO)CN4)n2)c1
test readout: log10 of IC50
recorded value: 1.18

compound: CC(C)OCCOc1ncc(Cl)cc1Nc1nccc(-c2cc(C#N)c3c(c2)[C@@](C)(CO)CN3)n1
test readout: log10 of IC50
recorded value: 1.35

compound: Cc1cnc(/C=C/C(=O)N(C)C)c(Nc2nccc(-c3cc(C#N)c4c(c3)[C@@](C)(CO)CN4)n2)c1
test readout: log10 of IC50
recorded value: 0.75

compound: CNC(=O)c1ncc(Cl)cc1Nc1nccc(-c2cc(C#N)c3c(c2)C(C)(CO)CN3)n1 (stereo not drawn)
test readout: log10 of IC50
recorded value: 1.26

compound: COC[C@@]1(C)CNc2c(C#N)cc(-c3ccnc(Nc4cc(Cl)cnc4C)n3)cc21 [Compound 145]
test readout: log10 of IC50
recorded value: 0.98

compound: CCCc1ncc(C#N)cc1Nc1nccc(-c2cc(C#N)c3c(c2)[C@@](C)(CO)CN3)n1
test readout: log10 of IC50
recorded value: 0.46

compound: Cc1cnc(CCC2CC2)c(Nc2nccc(-c3cc(C#N)c4c(c3)[C@@](C)(CO)CN4)n2)c1
test readout: log10 of IC50
recorded value: 0.59

compound: COCCNc1nc(OC)c(Nc2nccc(-c3cc(C#N)c4c(c3)C(C)(CO)CN4)n2)cc1Cl (stereo not drawn)
test readout: log10 of IC50
recorded value: 1.12

compound: Cc1ncc(C2CCN(C)CC2)cc1Nc1nccc(-c2cc(C#N)c3c(c2)[C@@](C)(CO)CN3)n1
test readout: log10 of IC50
recorded value: 2.01

compound: COCCOc1ccncc1Nc1nccc(-c2cc(C#N)c3c(c2)[C@@](C)(CO)CN3)n1
test readout: log10 of IC50
recorded value: 1.12

compound: CN(C)C(=O)CCc1ccc(Nc2nccc(-c3cc(C#N)c4c(c3)[C@@](C)(CO)CN4)n2)c(CCC2CC2)n1
test readout: log10 of IC50
recorded value: 0.56

compound: Cc1nc(Nc2nccc(-c3cc(C#N)c4c(c3)[C@@](C)(CO)CN4)n2)cc(N2CCOCC2)n1
test readout: log10 of IC50
recorded value: 1.59

compound: CCOC(=O)c1ccc(Nc2nccc(-c3cc(C#N)c4c(c3)C(C)(CO)CN4)n2)cn1 (stereo not drawn)
test readout: log10 of IC50
recorded value: 0.72

compound: COc1nc(C2CCOCC2)ncc1Nc1nccc(-c2cc(C#N)c3c(c2)[C@@](C)(CO)CN3)n1
test readout: log10 of IC50
recorded value: 0.68

compound: Cc1cc(Nc2nccc(-c3cc(C#N)c4c(c3)C(C)(C)CN4)n2)c(=O)n(CCN2CC(F)C2)c1 [Compound 27i]
test readout: log10 of IC50
recorded value: 0.76

compound: Cc1cc(Nc2ncnc(-c3cc(C#N)c4c(c3)[C@@](C)(CO)CN4)n2)c(=O)n(C)c1 [Compound 30i]
test readout: log10 of IC50
recorded value: 0.66

compound: COCCOc1nc(P(C)(C)=O)ccc1Nc1nccc(-c2cc(C#N)c3c(c2)[C@@](C)(CO)CN3)n1
test readout: log10 of IC50
recorded value: 0.86

compound: COc1ncc(Cl)cc1Nc1nccc(-c2cc(C#N)c3c(c2)C(C)(CO)CN3)n1 (stereo not drawn)
test readout: log10 of IC50
recorded value: 0.92

compound: Cc1cnc(OC2CN(C)CC2F)c(Nc2nccc(-c3cc(C#N)c4c(c3)[C@@](C)(CO)CN4)n2)c1 (stereo partly drawn) [Compound 153]
test readout: log10 of IC50
recorded value: 0.76

compound: CNC(=O)c1cnc(C)c(Nc2nccc(-c3cc(C#N)c4c(c3)[C@@](C)(CO)CN4)n2)c1
test readout: log10 of IC50
recorded value: 0.32

The measurements presented in this section are drawn from patent US11001569B2.
